- assayed target: human EGF receptor 1 (EGFR) as used in the SPR rate analysis (UniProt P00533 25-645, limits assumed)
- method description: SPR rate analysis of scFv
Listing of recorded kon by entry.
// units = M⁻¹ s⁻¹; emit number, no label

lysine-substituted single-chain antibody "OK" containing VH0K and VL0K (all lysine residues replaced) (scFv, Expressed in E. coli; also called VH0K VL0K) scFv: QVQLVQSGAEVAEPGASVQVSCAASGYTFTSYWMHWVRQAPGQGLEWMGNIYPGSGGTNYAEEFQNRVTMTRDTSISTAYMELSRLRSDDTAVYYCARSGGPYFFDYWGQGTLVTVSSGGGGSGGGGSGGGGSDIVMTQSPLSLPVTPGEPASISCRSSQNIVHNNGITYLEWYLQRPGQSPQLLIYQVSDRFSGVPDRFSGSGSGTDFTLTISRVEAEDVGVYYCFQGSHIPPTFGQGTEVEIERHHHHHH; 60300
h528scFv, single-chain antibody of the humanized anti-human EGF receptor 1 (Her1) antibody 528 before lysine substitution (scFv, also called PC) scFv: QVQLVQSGAEVKKPGASVKVSCKASGYTFTSYWMHWVRQAPGQGLEWMGNIYPGSGGTNYAEKFKNRVTMTRDTSISTAYMELSRLRSDDTAVYYCARSGGPYFFDYWGQGTLVTVSSAGGGGSDIVMTQSPLSLPVTPGEPASISCRSSQNIVHNNGITYLEWYLQKPGQSPQLLIYKVSDRFSGVPDRFSGSGSGTDFTLKISRVEAEDVGVYYCFQGSHIPPTFGQGTKVEIKRAAAAEQKLISEEDLNLGGGMRGSHHHHHH; 141000
lysine-substituted single-chain antibody "LK" containing VH0K and VL1K (L108 re-replaced with lysine) (scFv, Expressed in E. coli; also called VH0K VL1K) scFv: QVQLVQSGAEVAEPGASVQVSCAASGYTFTSYWMHWVRQAPGQGLEWMGNIYPGSGGTNYAEEFQNRVTMTRDTSISTAYMELSRLRSDDTAVYYCARSGGPYFFDYWGQGTLVTVSSGGGGSGGGGSGGGGSDIVMTQSPLSLPVTPGEPASISCRSSQNIVHNNGITYLEWYLQRPGQSPQLLIYQVSDRFSGVPDRFSGSGSGTDFTLTISRVEAEDVGVYYCFQGSHIPPTFGQGTKVEIERHHHHHH; 71100

Now examine the next entry.
-- ask Param item = lysine-substituted single-chain antibody "HK" containing VH1K and VL0K (H19 re-replaced with lysine) (scFv, Expressed in E. coli; also called VH1K VL0K) scFv: QVQLVQSGAEVAEPGASVKVSCAASGYTFTSYWMHWVRQAPGQGLEWMGNIYPGSGGTNYAEEFQNRVTMTRDTSISTAYMELSRLRSDDTAVYYCARSGGPYFFDYWGQGTLVTVSSGGGGSGGGGSGGGGSDIVMTQSPLSLPVTPGEPASISCRSSQNIVHNNGITYLEWYLQRPGQSPQLLIYQVSDRFSGVPDRFSGSGSGTDFTLTISRVEAEDVGVYYCFQGSHIPPTFGQGTEVEIERHHHHHH ; retrieve measured kon.
-- reply 71000
